- System: 817829-284-R-J1-PDC complex spheroids, viability;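 also: spheroids exposed to the agents for seven days before readout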
- experiment: Anticancer human tumor 817829-284-R-J1-PDC patient-derived colon adenocarcinoma cell line growth inhibition [CLK]
- test.conditions: second compound 10 µM; first compound 0.316 µM; active compounds read low
Label satisfied when viability, T/C is strictly below 0.1%; otherwise label not satisfied.

Identify whether the compound CC(Nc1ccc2c(c1)OCCn1cc(N3C(=O)OCC3C(F)F)nc1-2)C(N)=O (centres undefined) + CN1CCN(c2cc(C(=O)Nc3cc4cc(-c5cnn(C)c5)ccc4cn3)ccn2)CC1 records viability, T/C below 0.1%.
not satisfied

Consider CC(=O)O[C@H]1C(=O)[C@@]2(C)[C@H]([C@H](OC(=O)c3ccccc3)[C@]3(O)C[C@H](OC(=O)[C@H](O)[C@@H](NC(=O)c4ccccc4)c4ccccc4)C(C)=C1C3(C)C)[C@]1(OC(C)=O)CO[C@@H]1C[C@@H]2O + CN1CCN(c2cc(C(=O)Nc3cc4cc(-c5cnn(C)c5)ccc4cn3)ccn2)CC1 . Does its viability, T/C lie strictly below 0.1%?
not satisfied

Hello, I'm reviewing records and need to know if viability, T/C of O=c1[nH]cc(F)c(=O)[nH]1 + CNC(=O)c1ccc(Nc2nc(OC3CCCC3)c3c(-c4ccc5nc(C)oc5c4)c[nH]c3n2)c(OC)c1 is below 0.1%. Could you check?
not satisfied

Find out if reported viability, T/C for COC1C=CCC(C)C(C)S(=O)(=O)NC(=O)c2ccc3c(c2)N(CC2CCC21)CC1(CCCc2cc(Cl)ccc21)CO3 (centres undefined) + CN1CCN(c2cc(C(=O)Nc3cc4cc(-c5cnn(C)c5)ccc4cn3)ccn2)CC1 is less than 0.1%
not satisfied

I wonder whether C=C(F)C(=O)N1CCN(c2nc(OCC3CCCN3C)nc3c2CCN(c2cccc4cccc(Cl)c24)C3)CC1CC#N (centres undefined) + CNC(=O)c1ccc(Nc2nc(OC3CCCC3)c3c(-c4ccc5nc(C)oc5c4)c[nH]c3n2)c(OC)c1 has viability, T/C below 0.1%. Can you tell?
not satisfied

Does the reported viability, T/C of CCc1c2c(nc3ccc(O)cc13)-c1cc3c(c(=O)n1C2)COC(=O)[C@]3(O)CC + CNC(=O)c1ccc(Nc2nc(OC3CCCC3)c3c(-c4ccc5nc(C)oc5c4)c[nH]c3n2)c(OC)c1 stay below 0.1%?
not satisfied

Consider CC1(C)CCC(CN2CCN(c3ccc(C(=O)NS(=O)(=O)c4ccc(NCC5CCOCC5)c([N+](=O)[O-])c4)c(Oc4cnc5[nH]ccc5c4)c3)CC2)=C(c2ccc(Cl)cc2)C1 + CN1CCN(c2cc(C(=O)Nc3cc4cc(-c5cnn(C)c5)ccc4cn3)ccn2)CC1 . Does its viability, T/C lie strictly below 0.1%?
satisfied

Answer whether the compound CCc1c2c(nc3ccc(O)cc13)-c1cc3c(c(=O)n1C2)COC(=O)[C@]3(O)CC + CN1CCN(c2cc(C(=O)Nc3cc4cc(-c5cnn(C)c5)ccc4cn3)ccn2)CC1 has viability, T/C strictly less than 0.1%
not satisfied

A record lists Nc1ccn(C2OC(CO)C(O)C2(F)F)c(=O)n1 (centres undefined) + CN1CCN(c2cc(C(=O)Nc3cc4cc(-c5cnn(C)c5)ccc4cn3)ccn2)CC1 . Is its viability, T/C below 0.1%?
satisfied

Would you kindly verify if viability, T/C of C=CC(=O)N1CCN(c2nc(=O)n(-c3c(C)ccnc3C(C)C)c3nc(-c4c(O)cccc4F)c(F)cc23)C(C)C1 (centres undefined) + CN1CCN(c2cc(C(=O)Nc3cc4cc(-c5cnn(C)c5)ccc4cn3)ccn2)CC1 is strictly less than 0.1%?
not satisfied

Confirm or reject: viability, T/C of C=C(F)C(=O)N1CCN(c2nc(OCC3CCCN3C)nc3c2CCN(c2cccc4cccc(Cl)c24)C3)CC1CC#N (centres undefined) + CN1CCN(c2cc(C(=O)Nc3cc4cc(-c5cnn(C)c5)ccc4cn3)ccn2)CC1 lies strictly below 0.1%
not satisfied

Determine whether this compound shows viability, T/C lower than 0.1% (ties excluded): CC(CO)NC(=O)c1cc(-c2ccc(Cl)cc2)nn(-c2cnn(C)c2)c1=O (centres undefined) + CN1CCN(c2cc(C(=O)Nc3cc4cc(-c5cnn(C)c5)ccc4cn3)ccn2)CC1
not satisfied

Answer whether the compound COc1c(OCCCN2CCOCC2)ccc2c3n(c(=NC(=O)c4cnc(N)nc4)nc12)CCN3 + CNC(=O)c1ccc(Nc2nc(OC3CCCC3)c3c(-c4ccc5nc(C)oc5c4)c[nH]c3n2)c(OC)c1 has viability, T/C strictly less than 0.1%
not satisfied
